# system: T1, MICB005-ECD-HISAvi (human, UniProt Q29980 24-309)
# T1 construct: Two sources under one name in the two kinetic assays; also called MICB005 polypeptide
# T1 sequence: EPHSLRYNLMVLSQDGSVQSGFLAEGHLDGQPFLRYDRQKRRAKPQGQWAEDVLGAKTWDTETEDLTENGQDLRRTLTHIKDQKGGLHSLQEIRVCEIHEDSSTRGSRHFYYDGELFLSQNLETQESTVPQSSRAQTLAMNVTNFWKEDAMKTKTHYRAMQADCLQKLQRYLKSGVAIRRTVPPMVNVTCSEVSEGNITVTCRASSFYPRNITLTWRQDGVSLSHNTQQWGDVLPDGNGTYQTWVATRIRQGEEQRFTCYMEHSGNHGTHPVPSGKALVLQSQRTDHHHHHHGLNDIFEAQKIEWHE
# test: BLI (GatorPrime); antibody on anti-hIgG Fc probe, monomeric antigen in solution;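 note: binding kinetics of anti-MICA/B antibodies measured by biolayer interferometry, with dissociation followed for about 10 min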
recorded_endpoint: Kd

- binder: "6E1.1.12 (antibody, human IgG1, kappa, V domains shown) VH: QGQMQQSGAELVKPGASVKLSCKTSGFTFSDNYISWLKQKPGQSLEWIAWIYAGTGGSSYNQKFRDKAQLTVDTSSRTAYMQLSSLTTEDSAIYYCARHDYYGTSGAWFAYWGRGTLVTVSA VL: DVLMTQTPLSLPVSLGDQASISCRSSQHIVHSNENTYLEWYLQKPGQSPKLLIYKVSNRFSGVPDRFSGSGSGTDFTLKISRVEAEDLGVYYCFQGSHVPWTFGGGTKVEIKR"
  recorded_endpoint: "Kd"
  result_value: "4.54 nM"
- binder: "B10G5 (antibody, human IgG1, kappa, V domains shown, also called B10G5-2; P2B10G5) VH: EVQLEESGPGLVKPSQSLSLTCTVTGYSITSDYAWNWIRQFPGNKLEWMGYISYSGSTNYNPSLKSRISITRDTSKNQFFLQLNSVITEDTATYYCARGGTYFDYWGQGTTLTVSS VL: DIVLTQTTSYLSVSLGGRVTIACKASAHINNWLAWYQQKPGNAPRLLISDATSLETGVPSRFSGSGSGKDYTLSITSLQTEDVATYYCQHYWSTPWTFGGGTKLEIKR"
  recorded_endpoint: "Kd"
  result_value: "1.35 nM"
- binder: "3F9 (antibody, human IgG1, kappa, V domains shown, also called benchmark 3F9) VH: QVQLVESGGGLVKPGGSLRLSCAASGFTFSNYAMSWIRQAPGKGLEWVSYISPGGDYIYYADSVKGRFTISRDNAKNSLYLQMNSLRAEDTAVYYCTTDRRHYGSYAMDYWGQGTLVTVSS VL: DIVMTQSPLSLPVTPGEPASISCRSSKSLLHSNLNTYLYWFLQKPGQSPQILIYRMSNLASGVPDRFSGSGSGTAFTLKISRVEAEDVGVYYCMQHLEYPFTFGPGTKLEIKR"
  recorded_endpoint: "Kd"
  result_value: "2.19 nM"
- binder: "1D5 (antibody, human IgG1, kappa, V domains shown, also called ID5) VH: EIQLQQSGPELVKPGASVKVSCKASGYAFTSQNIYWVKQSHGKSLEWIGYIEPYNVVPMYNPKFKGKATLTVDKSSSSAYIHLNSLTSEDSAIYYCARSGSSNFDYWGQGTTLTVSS VL: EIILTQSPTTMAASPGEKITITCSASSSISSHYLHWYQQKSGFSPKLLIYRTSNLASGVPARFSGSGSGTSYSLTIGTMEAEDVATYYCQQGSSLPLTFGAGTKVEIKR"
  recorded_endpoint: "Kd"
  result_value: "0.195 nM"
